These entries and their values trace back to patent US20060058231A1.

Target: T1, BMPRIa receptor-Fc fusion (UniProt P36894 24-152, limits assumed)
T1 construct: also called ALK-3
T1 sequence (P36894 24-152 limits assumed): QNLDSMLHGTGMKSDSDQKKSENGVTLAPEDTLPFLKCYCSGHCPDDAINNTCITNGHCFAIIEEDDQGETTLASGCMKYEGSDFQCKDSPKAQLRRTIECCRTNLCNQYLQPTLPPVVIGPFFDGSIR
Experiment: ELISA-like plate assay, captured BMP-7 from conditioned media, receptor-Fc detection
measured_quantity: BMPRIa binding (relative to wild type = 1.0)

input: # get_value(readout='BMPRIa binding (relative to wild type = 1.0)', item= BMP-7 variant K126Q (ligand, In conditioned media; numbering on mature BMP-7) STGGKQRSQNRSKTPKNQEALRMASVAENSSSDQRQACKKHELYVSFRDLGWQDWIIAPEGYAAYYCEGECAFPLNSYMNATNHAIVQTLVHFINPETVPKPCCAPTQLNAISVLYFDDSSNVILQKYRNMVVRACGCH )
output: 0.46 relative to wild type

input: Then what about the binder BMP-7 variant F117R (ligand, In conditioned media; numbering on mature BMP-7) STGGKQRSQNRSKTPKNQEALRMASVAENSSSDQRQACKKHELYVSFRDLGWQDWIIAPEGYAAYYCEGECAFPLNSYMNATNHAIVQTLVHFINPETVPKPCCAPTQLNAISVLYRDDSSNVILKKYRNMVVRACGCH ?
output: 0.47 relative to wild type

input: Also BMP-7 variant Y78H (ligand, In conditioned media; numbering on mature BMP-7) STGGKQRSQNRSKTPKNQEALRMASVAENSSSDQRQACKKHELYVSFRDLGWQDWIIAPEGYAAYYCEGECAFPLNSHMNATNHAIVQTLVHFINPETVPKPCCAPTQLNAISVLYFDDSSNVILKKYRNMVVRACGCH , if possible.
output: 1.36 relative to wild type

input: Record: BMP-7 variant F93D (ligand, In conditioned media; numbering on mature BMP-7) STGGKQRSQNRSKTPKNQEALRMASVAENSSSDQRQACKKHELYVSFRDLGWQDWIIAPEGYAAYYCEGECAFPLNSYMNATNHAIVQTLVHDINPETVPKPCCAPTQLNAISVLYFDDSSNVILKKYRNMVVRACGCH
output: 0.96 relative to wild type

input: Thanks! And BMP-7 variant Y78S (ligand, In conditioned media; numbering on mature BMP-7) STGGKQRSQNRSKTPKNQEALRMASVAENSSSDQRQACKKHELYVSFRDLGWQDWIIAPEGYAAYYCEGECAFPLNSSMNATNHAIVQTLVHFINPETVPKPCCAPTQLNAISVLYFDDSSNVILKKYRNMVVRACGCH ?
output: 1.29 relative to wild type

input: // next record BMP-7 variant K126E (ligand, In conditioned media; numbering on mature BMP-7) STGGKQRSQNRSKTPKNQEALRMASVAENSSSDQRQACKKHELYVSFRDLGWQDWIIAPEGYAAYYCEGECAFPLNSYMNATNHAIVQTLVHFINPETVPKPCCAPTQLNAISVLYFDDSSNVILEKYRNMVVRACGCH
output: 0.23 relative to wild type

input: Could you do the same for BMP-7 variant W55N (ligand, In conditioned media; numbering on mature BMP-7) STGGKQRSQNRSKTPKNQEALRMASVAENSSSDQRQACKKHELYVSFRDLGWQDNIIAPEGYAAYYCEGECAFPLNSYMNATNHAIVQTLVHFINPETVPKPCCAPTQLNAISVLYFDDSSNVILKKYRNMVVRACGCH , please?
output: 0.35 relative to wild type
